target: GluN1/GluN2C NMDARs (Rattus norvegicus, UniProt P35439+Q00961); test: Two-electrode voltage-clamp recordings, Xenopus laevis oocytes expressing GluN1/GluN2C; assay type: cell-based; conditions: sub-saturating glutamate/glycine 1/0.3 µM; read-out: EC50 (µM) [conf. int.]
Sequence (Q00961 20-1237, other chains not shown): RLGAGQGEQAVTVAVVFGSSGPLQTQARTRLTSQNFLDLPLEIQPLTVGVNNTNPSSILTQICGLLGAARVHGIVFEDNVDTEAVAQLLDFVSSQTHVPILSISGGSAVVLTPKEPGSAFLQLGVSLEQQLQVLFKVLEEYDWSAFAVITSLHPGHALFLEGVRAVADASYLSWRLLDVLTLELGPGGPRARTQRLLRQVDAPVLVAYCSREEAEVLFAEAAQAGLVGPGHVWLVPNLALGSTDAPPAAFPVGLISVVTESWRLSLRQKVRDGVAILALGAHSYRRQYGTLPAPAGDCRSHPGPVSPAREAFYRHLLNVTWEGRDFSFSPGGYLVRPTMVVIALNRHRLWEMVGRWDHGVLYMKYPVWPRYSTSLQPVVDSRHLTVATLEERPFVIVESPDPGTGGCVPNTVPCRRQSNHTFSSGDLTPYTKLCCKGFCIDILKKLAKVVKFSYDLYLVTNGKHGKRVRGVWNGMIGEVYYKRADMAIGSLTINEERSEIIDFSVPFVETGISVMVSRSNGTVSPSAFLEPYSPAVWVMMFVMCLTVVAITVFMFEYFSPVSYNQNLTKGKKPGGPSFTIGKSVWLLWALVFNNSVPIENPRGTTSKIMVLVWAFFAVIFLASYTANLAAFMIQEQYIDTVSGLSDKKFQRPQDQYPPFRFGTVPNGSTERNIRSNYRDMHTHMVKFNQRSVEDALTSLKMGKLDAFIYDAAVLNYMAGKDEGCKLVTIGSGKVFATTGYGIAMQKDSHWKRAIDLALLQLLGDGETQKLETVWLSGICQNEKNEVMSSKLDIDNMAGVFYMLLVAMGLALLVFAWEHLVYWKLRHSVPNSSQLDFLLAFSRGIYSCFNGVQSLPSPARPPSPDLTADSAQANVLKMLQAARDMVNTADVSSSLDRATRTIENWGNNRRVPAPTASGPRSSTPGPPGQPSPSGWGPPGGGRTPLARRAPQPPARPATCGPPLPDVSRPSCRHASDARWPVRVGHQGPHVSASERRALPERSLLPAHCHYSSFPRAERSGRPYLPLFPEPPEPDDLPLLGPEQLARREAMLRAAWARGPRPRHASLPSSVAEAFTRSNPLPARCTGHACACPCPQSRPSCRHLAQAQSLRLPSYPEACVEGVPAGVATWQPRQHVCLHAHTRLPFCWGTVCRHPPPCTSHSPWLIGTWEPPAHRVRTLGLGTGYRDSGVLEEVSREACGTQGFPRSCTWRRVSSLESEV
# maps each entry to its EC50
Give the quantity in µM, number only.

1. CCOC(=O)c1c(NC(=O)CC2SC(=N)NC2=O)sc2c1CCCC2 (centres unmarked)	15

Would you kindly look at the next entry?
Lookup: What value of EC50 has been reported for the following compound? CC(C)(C)OC(=O)c1c(NC(=O)CC2SC(=N)NC2=O)sc2c1CCCC2 (centres unmarked)
Found: 5

---

target: GluN1/GluN2B NMDARs (Rattus norvegicus, UniProt P35439+Q00960); assay: Two-electrode voltage-clamp recordings, Xenopus laevis oocytes expressing GluN1/GluN2B; type: cell-based; details: +EU1794-2 1 µM; glutamate/glycine 100/30 µM; read-out: EU1794-27 EC50 (µM) [conf. int.]
Sequence (Q00960 27-1482, other chains not shown): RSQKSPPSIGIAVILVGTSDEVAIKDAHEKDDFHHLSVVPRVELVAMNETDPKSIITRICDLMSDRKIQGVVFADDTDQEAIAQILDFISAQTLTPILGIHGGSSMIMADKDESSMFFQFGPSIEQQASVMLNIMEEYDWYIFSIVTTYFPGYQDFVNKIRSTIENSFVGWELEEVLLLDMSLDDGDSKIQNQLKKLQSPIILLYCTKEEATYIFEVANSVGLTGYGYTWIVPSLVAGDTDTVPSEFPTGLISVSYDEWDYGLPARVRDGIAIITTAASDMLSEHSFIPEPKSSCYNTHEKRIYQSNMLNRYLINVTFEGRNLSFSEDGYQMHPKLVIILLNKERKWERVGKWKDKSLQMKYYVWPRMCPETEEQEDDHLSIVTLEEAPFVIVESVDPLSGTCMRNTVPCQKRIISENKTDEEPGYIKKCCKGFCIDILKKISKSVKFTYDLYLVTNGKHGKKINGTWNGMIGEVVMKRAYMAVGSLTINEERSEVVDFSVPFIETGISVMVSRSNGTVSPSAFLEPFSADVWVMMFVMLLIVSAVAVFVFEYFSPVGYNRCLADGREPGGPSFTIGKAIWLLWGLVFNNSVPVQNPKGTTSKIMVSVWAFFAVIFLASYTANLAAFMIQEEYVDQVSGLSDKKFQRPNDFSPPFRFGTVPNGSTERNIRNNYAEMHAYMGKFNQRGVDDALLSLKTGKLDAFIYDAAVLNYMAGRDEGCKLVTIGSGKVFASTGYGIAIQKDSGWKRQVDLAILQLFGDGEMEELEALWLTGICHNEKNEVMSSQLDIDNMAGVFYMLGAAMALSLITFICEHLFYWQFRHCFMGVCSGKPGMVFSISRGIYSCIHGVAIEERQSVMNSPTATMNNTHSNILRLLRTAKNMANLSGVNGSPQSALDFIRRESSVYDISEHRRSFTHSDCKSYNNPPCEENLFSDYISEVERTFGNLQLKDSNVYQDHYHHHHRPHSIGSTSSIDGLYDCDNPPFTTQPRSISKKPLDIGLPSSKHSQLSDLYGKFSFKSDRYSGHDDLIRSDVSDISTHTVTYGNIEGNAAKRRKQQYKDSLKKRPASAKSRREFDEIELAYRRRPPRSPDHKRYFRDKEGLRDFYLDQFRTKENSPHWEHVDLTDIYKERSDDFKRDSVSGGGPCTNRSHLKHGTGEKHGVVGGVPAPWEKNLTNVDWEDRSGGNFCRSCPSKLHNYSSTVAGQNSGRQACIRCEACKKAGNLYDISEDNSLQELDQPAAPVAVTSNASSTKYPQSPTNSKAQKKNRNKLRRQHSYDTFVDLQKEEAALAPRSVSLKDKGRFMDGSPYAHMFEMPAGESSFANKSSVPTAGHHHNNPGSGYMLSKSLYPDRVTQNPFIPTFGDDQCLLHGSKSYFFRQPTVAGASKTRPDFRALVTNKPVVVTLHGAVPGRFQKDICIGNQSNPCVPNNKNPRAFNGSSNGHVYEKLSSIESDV
Quantity measured: EC50 (µM)
API: value field is a number in µM; no unit string.

Lookup: Looking for the measured EC50 of CC(C)(C)OC(=O)c1c(NC(=O)CC2SC(=N)NC2=O)sc2c1CCCC2 (stereo not shown) [EU1794-27] , can you help?
Found: 6

---

biological target: GluN1/GluN2B NMDARs (Rattus norvegicus, UniProt P35439+Q00960); assay: Two-electrode voltage-clamp recordings, Xenopus laevis oocytes expressing GluN1/GluN2B; type: cell-based; conditions: sub-saturating glutamate/glycine 0.6/0.2 µM; read-out: EC50 (µM) [conf. int.]
Quantity measured: EC50 (µM)
Quick reminder: number only, in µM, skip the unit.

Lookup: Consider the molecule shown here: CCOC(=O)c1c(NC(=O)CC2SC(=N)NC2=O)sc2c1CCC(C)C2 (stereo not shown) What is its recorded EC50?
Found: 1.4

---

biological target: GluN1/GluN2C NMDARs (Rattus norvegicus, UniProt P35439+Q00961); test: Two-electrode voltage-clamp recordings, Xenopus laevis oocytes expressing GluN1/GluN2C; type: cell-based; settings: saturating glutamate/glycine 100/30 µM; mean [95% CI]; read-out: EC50 (µM) [conf. int.]
This section presents molecules with their documented EC50 values.
State just the number; it will be interpreted in µM.

Previously resolved entries follow.
1. CCOC(=O)c1c(NC(=O)CC2SC(=N)NC2=O)sc2c1CCCC2 (stereo not shown)	0.42
2. CC(C)OC(=O)c1c(NC(=O)CC2SC(=N)NC2=O)sc2c1CCCC2 (stereo not shown)	4
3. CC(C)(C)OC(=O)c1c(NC(=O)CC2SC(=N)NC2=O)sc2c1CCCC2 (stereo not shown)	2.8
4. CCCCOC(=O)c1c(NC(=O)CC2SC(=N)NC2=O)sc2c1CCCC2 (stereo not shown)	3.8
5. CC1CCc2c(sc(NC(=O)CC3SC(=N)NC3=O)c2C(=O)OC(C)C)C1 (stereo not shown)	0.74
6. N=C1NC(=O)C(CC(=O)Nc2sc3c(c2C(=O)OCc2ccccc2)CCCC3)S1 (stereo not shown)	0.77

Then this molecule:
Lookup: For CCOC(=O)c1c(NC(=O)CC2SC(=N)NC2=O)sc2c1CCC(C)C2 (stereo not shown) , what is its reported EC50?
Found: 0.26

---

molecular target: GluN1/GluN2B NMDARs (Rattus norvegicus, UniProt P35439+Q00960); test: Two-electrode voltage-clamp recordings, Xenopus laevis oocytes expressing GluN1/GluN2B; assay type: cell-based; details: +EU1794-27 20 µM; glutamate/glycine 100/30 µM; read-out: EU1794-2 IC50 (µM) [conf. int.]
Quantity measured: IC50 (µM)
Give the quantity in µM, number only.

Lookup: Can you share its IC50? I mean this molecule: CCOC(=O)c1c(NC(=O)CC2SC(=N)NC2=O)sc2c1CCC(C)C2 (stereo not shown)
Found: 12
